Numbers sourced from patent US10273313B2.

target_or_test_system: lectin domain of FimH (Escherichia coli)
Construct: The lectin domain of FimH was expressed as described previously and purified at pH 4.0; made in house
Sequence (P08191 22-179): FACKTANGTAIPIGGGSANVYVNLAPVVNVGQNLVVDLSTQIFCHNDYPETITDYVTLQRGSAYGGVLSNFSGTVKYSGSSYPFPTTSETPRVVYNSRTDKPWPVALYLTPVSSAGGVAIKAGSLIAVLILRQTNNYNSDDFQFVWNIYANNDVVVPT
measurement_notes: Surface plasmon resonance solution competition assay
Assay type: binding
test_conditions: solution affinity, measurement 2
property_label: pKd
Answers are plain numbers, as −log10 of the molar value.

*Q* pKd for "CC(=O)c1cnc(N[C@H]2O[C@H](CO)[C@@H](O)[C@H](O)[C@@H]2O)s1" ?
*A* 6.66
